# assayed_target: PAF receptor (Homo sapiens)
# Sequence (P25105 whole entry): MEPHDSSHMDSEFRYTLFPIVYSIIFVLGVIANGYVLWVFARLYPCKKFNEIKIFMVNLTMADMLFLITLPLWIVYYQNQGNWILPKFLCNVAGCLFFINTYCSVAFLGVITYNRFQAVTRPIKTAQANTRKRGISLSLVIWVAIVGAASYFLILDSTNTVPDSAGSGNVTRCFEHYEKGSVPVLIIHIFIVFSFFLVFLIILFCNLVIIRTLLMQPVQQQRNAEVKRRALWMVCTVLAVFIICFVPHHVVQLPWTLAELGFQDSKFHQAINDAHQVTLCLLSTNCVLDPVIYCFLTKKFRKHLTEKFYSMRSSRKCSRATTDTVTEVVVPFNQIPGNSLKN
# assay_method_text: Inhibition of [^3 H]-PAF Receptor Binding (human platelet plasma membrane)
# condition: 0.5 nM [^3 H]-PAF, 0° C., 1 hour incubation, pH 7.0
// reported IC50 per item
Note: unit nM is implicit; provide only the numeric part.

Consider the following illustrative entries.
> print(dat)
                                   molecule  endpoint  assay.value
1  CCOC[C@H](CC(C)C)NS(=O)(=O)c1ccc(Cn2cnc3cccnc32)cc1 [Example 45A]      IC50           20
2  CCCCc1nc(Cl)c(CO)n1Cc1ccc(S(=O)(=O)N[C@@H](CC(C)C)C(=O)OCC)cc1 [Example 4]      IC50            5
3  CCc1nccn1Cc1ccc(S(=O)(=O)N(C)[C@@H](CC(C)C)C(=O)OC)cc1 [Example 43]      IC50            5

// next item, IC50 requested
For CCOC(=O)[C@H](CC(C)C)NS(=O)(=O)c1ccc(Cn2ccnc2-c2ccccc2)cc1 [Example 1] the molecule record lists IC50 as 7
